Tested on: Staphylococcus epidermidis
Assay: Tested in vitro for antibacterial activity against Staphylococcus epidermidis (IAM 1296)
Format: functional
measure_name: MIC (µg/mL)

• CN1CCN(c2c(F)cc3c(=O)c(C(=O)O)c4n5c3c2C(=O)CC5CS4)CC1.Cl (centres undefined) = 3.13
• CN1CCN(c2c(F)cc3c(=O)c(C(=O)O)c4n5c3c2SCC5CO4)CC1.Cl (centres undefined) = 6.25
• CN1CCN(c2c(F)cc3c(=O)c(C(=O)O)c4n5c3c2N(C)CC5CS4)CC1.Cl (centres undefined) = 0.78
• CN1CCN(c2c(F)cc3c(=O)c(C(=O)O)c4n5c3c2OCC5CS4)CC1.Cl (centres undefined) = 0.2

Data origin: ChEMBL document CHEMBL1126942
